# testDescription: qHTS assay for identifying genotoxic compounds that show differential cytotoxicity against isogenic chicken DT40 cell lines with known DNA damage response pathways - Rev3 mutant cell line (AID 743014); note: nearly all actives have a fitted effect of over 55% in size
# recordedConditions: chicken DT40 Rev3-/- viability, CellTiter-Glo, 40 h; series mostly up to 68.4 µM
Inconclusive results are not listed. Activity calls are given as the source filed them. Calls come from the whole dose curve; as a rule, active = well fitted cell-killing curve with a large enough effect in the repeat runs; inconclusive = weak or mixed curves, or effect the other way; inactive = no such curve, though single readings can be large or run the other way.
Could you please pick one outcome from this set? active, inactive

As a guide, the following entries are already answered.
Exercise: Please let me know the test result on file for CN1C(=O)CN2CCc3ccccc3C2c2cc(Cl)ccc21 (configuration not stated) .
Solution: inactive

Exercise: Outcome? "Cc1ccccc1CNc1ncnc2c1ncn2[C@@H]1O[C@H](CO)[C@@H](O)[C@H]1O"
Solution: active

Exercise: What was the test verdict on "O=C1C(=O)c2ncccc2-c2cccnc21" ?
Solution: active

Exercise: Call for entry "CCC[C@@]1(CCc2ccccc2)CC(O)=C([C@H](CC)c2cccc(NS(=O)(=O)c3ccc(C(F)(F)F)cn3)c2)C(=O)O1" :
Solution: inactive

Exercise: Hi, do you know how CN1CC(O)c2cc(N=NC(N)=O)c(O)cc21 (configuration not stated) came out in this test?
Solution: inactive

Exercise: How was "CC(C)C(=O)OCC(=O)[C@@]12O[C@H](C3CCCCC3)O[C@@H]1C[C@H]1[C@@H]3CCC4=CC(=O)C=C[C@]4(C)[C@H]3[C@@H](O)C[C@@]12C" classified in this test?
Solution: inactive

Exercise: What did the test return for CC(CN(C)C)CN1c2ccccc2Sc2ccc(C(F)(F)F)cc21 (configuration not stated) ?
Solution: active

Exercise: Hi, do you know how "CCN(CC)CCOc1ccc(-c2nc3cc(Cl)ccc3s2)cc1" came out in this test?
Solution: active

Exercise: Can you look up the reported call for "O=C(O)c1ccc(OCCn2ccnc2)cc1" for me?
Solution: inactive

Exercise: Would you mind telling me which call this test gave "O=C(O)c1nc(=O)[nH]c(=O)[nH]1" ?
Solution: inactive

New cases:
Exercise: Call for entry "N[C@H](CCC(=O)O)C(=O)O" :
Solution: inactive

Exercise: // param item: C/C1=C2N=C(/C=C3N=C(/C(C)=C4\[N-][C@@](C)([C@@H]5N=C1[C@](C)(CCC(=O)NCC(C)OP(=O)(O)O[C@H]1[C@@H](O)[C@@H](n6cnc7cc(C)c(C)cc76)O[C@@H]1CO)[C@H]5CC(N)=O)[C@@](C)(CC(N)=O)[C@@H]4CCC(N)=O)[C@@](C)(CC(N)=O)[C@@H]\3CCC(N)=O)C(C)(C)[C@@H]/2CCC(N)=O.CC(=O)O.[Co] (some centres not stated) ; yields the recorded call
Solution: inactive

Exercise: State the result this test recorded for "CCOC(=O)COc1ccc2c(C)c(CCN(CC)CC)c(=O)oc2c1" .
Solution: inactive

Exercise: Please state the recorded outcome for this molecule: Cc1nnc(C(C)C)n1C1C[C@H]2CC[C@@H](C1)N2CC[C@H](NC(=O)C1CCC(F)(F)CC1)c1ccccc1 (some centres not stated)
Solution: inactive

Exercise: Assay outcome for "O=C(O)c1cccc(/C=C2/C[C@@H]3[C@@H](/C=C/[C@@H](O)C4CCCCC4)[C@H](O)C[C@@H]3O2)c1" : what was it?
Solution: inactive

Exercise: Which outcome did this test record for the molecule "CCN(CC)CCOC(=O)c1ccc(N)cc1Cl" ?
Solution: inactive

Exercise: Per the assay record, what outcome was assigned to COc1ccc(CC2c3cc(OC)c(OC)cc3CC[N+]2(C)CCC(=O)OCCCCCOC(=O)CC[N+]2(C)CCc3cc(OC)c(OC)cc3C2Cc2ccc(OC)c(OC)c2)cc1OC (configuration not stated) ?
Solution: inactive
